System: Enterococcus faecalis
assay-summary: Antibacterial activity against Streptococcus faecalis by broth microdilution technique
quantity-measured: IC50 (nM)
Enter your answer as a number in nM; do not include the unit.

Challenge: Given CNC(C)[C@@H]1CC[C@@H](N)[C@@H](O[C@H]2[C@H](O)[C@@H](O[C@H]3OC[C@](C)(O)[C@H](NC)[C@H]3O)[C@H](N)C[C@@H]2N)O1 (stereo partly specified) [Gentamicin] , state its recorded IC50.
Response given: 445
